Data provenance: ChEMBL document CHEMBL1122602

- Tested on: Mus musculus
- Assay details: Antimalarial activity was assessed against Plasmodium berghei in mice (Mus musculus). Increase in mean survival time in days was reported at 160 mg/kg dosage of the compound.
- Assay type: functional
Attribute: Mean survival time
Answer format: numeric, days implied, no suffix.

Compound: C/C(=N\N=C(/S)NCc1ccccc1)c1nccc2ccccc12
Unit spec: days
Mean survival time: 0.9
--
Compound: CC(N/N=C(\S)N1CCN(c2ccccn2)CC1)c1nccc2ccccc12 (centres undefined)
Unit spec: days
Mean survival time: 6.6
--
Compound: C/C(=N\N=C(/S)N(C)C)c1nccc2ccccc12
Unit spec: days
Mean survival time: 9.2

With those in mind, consider the next compound.
Mean survival time for Mus musculus with input CC(N/N=C(\S)NCc1ccccc1)c1nccc2ccccc12 (centres undefined) equals 0.9
